Listed compounds paired with reported % ID/g (4 h) Pancreas
# System: ASPC-1 tumor-bearing mice
# assay method text: Biodistribution of radionuclide labeled complexes in ASPC-1 tumor-bearing mice
# Type: in vivo, BALB/c nude mice
# measurement setup: Pancreas, 4 h

{"compound": "COc1cccc(OC)c1-c1cc(C(=O)NC2(C(=O)O)C3CC4CC(C3)CC2C4)nn1-c1ccc(NC(=O)CCCN(C)CCCN(C)C(=O)CN2CCN(CC(=O)[O-])CCN(CC(=O)[O-])CCN(CC(=O)[O-])CC2)cc1C(C)C.[177Lu+3] (centres unmarked) [^177Lu-I-5]", "% ID/g (4 h) Pancreas [% ID/g]": 1.57}
{"compound": "COc1cccc(OC)c1-c1cc(C(=O)NC2(C(=O)O)C3CC4CC(C3)CC2C4)nn1-c1ccc(NCCCN(C)CCCNC(=O)CN2CCN(CC(=O)[O-])CCN(CC(=O)[O-])CCN(CC(=O)[O-])CC2)cc1C(C)C.[177Lu+3] (centres unmarked) [^177Lu-I-2]", "% ID/g (4 h) Pancreas [% ID/g]": 0.54}
